Origin of the recorded values: PubChem BioAssay (NCI)

system: NCI-H23 lung; experiment: NCI-60 one-dose screen, 48 h (100 = growth as untreated, 0 = no growth, -100 = all killed); conditions: 10 µM unless noted
About 83,000 compounds went through this panel and 20% of them were active in at least one assay; those are over-represented in the sample as a whole.
Reported Metric: growth (%)
Your answer should be a plain number; it is taken to be in %.

Some solved entries appear below for comparison.
Cc1ccc2c(n1)C(=O)C(Br)=C(CC(C)C)C2=O    98.6
N#CSCC1CC(O)(c2ccccc2)CC(c2ccc(F)cc2)O1 (stereo not drawn)    20.5

Here is another compound to look at.
The compound identified as COc1cc(NS(=O)(=O)c2ccc(-c3cnc(C4CC4)o3)cc2)ccc1F registered its growth at 33.6
